# System: Huh7 cells expressing a subgenomic RNA replicon of Con1 (genotype 1b) sequence origin
# assay.text: microbe, parasite or virus in culture
# condition.details: Hepatitis C virus, GETYPE1B, Huh-7, 72 h, read-out: Max Effect @CC30 (inhibition)
Please mark MET if the recorded Emax is equal to or greater than 40%, and NOT MET if it falls below.

>>> group("CN[C@@H]1CC[C@H](c2ccc(Cl)c(Cl)c2)c2ccccc21 [1R,4R Sertraline Enantiomer]")
"MET"
>>> group("CN[C@H]1CC[C@@H](c2ccc(Cl)c(Cl)c2)c2ccc(S(=O)(=O)N(C)C)cc21 [Sertraline N,N-dimethylsulfonamide]")
"NOT MET"
>>> group("CSc1ccc(Oc2ccc(S(N)(=O)=O)cc2CN(C)C)cc1C [UK-416244, reference compound]")
"MET"
>>> group("CN[C@H]1CC[C@@H](c2ccc(Cl)c(Cl)c2)c2ccc(NS(C)(=O)=O)cc21 [Sertraline (Reverse) Methanesulfonamide]")
"MET"
>>> group("CN(C)[C@H]1CC[C@@H](c2ccc(Cl)c(Cl)c2)c2ccc(NS(C)(=O)=O)cc21 [Dimethyl Sertraline Reverse Sulfonamide]")
"MET"

---

# System: Huh7 cells expressing a subgenomic RNA replicon of Con1 (genotype 1b) sequence origin
# assay.text: microbe, parasite or virus in culture
# condition.details: Hepatitis C virus, GETYPE1B, Huh-7, 72 h, read-out: Max Effect @CC30 (inhibition)
Below is a list of entries, each paired with its recorded Emax value.
experimental.readout: Emax (%)

>>> result("N[C@@H]1CC[C@H](c2ccc(Cl)c(Cl)c2)c2ccccc21")
0
>>> result("CN[C@H]1CC[C@@H](c2ccc(Cl)c(Cl)c2)c2ccc(CNS(C)(=O)=O)cc21")
59.7
>>> result("CN[C@H]1CC[C@@H](c2ccc(Cl)c(Cl)c2)c2ccc(N)cc21")
50
>>> result("CN[C@H]1CC[C@@H](c2ccc(Cl)c(Cl)c2)c2ccc(S(N)(=O)=O)cc21 [Sertraline Sulfonamide NH2]")
63.5

---

# System: Huh7 cells expressing a subgenomic RNA replicon of Con1 (genotype 1b) sequence origin
# assay.text: microbe, parasite or virus in culture
# condition.details: Hepatitis C virus, Huh-7
Counter-ions that a name gives are not always drawn.
// NB: equality with 6 µM counts as label 0; only IC50 strictly below is label 1

>>> group("COC(=O)[C@H]1[C@H]2C[C@@H]3c4[nH]c5cc(OC)ccc5c4CCN3C[C@H]2C[C@@H](OC(=O)/C=C/c2cc(OC)c(OC)c(OC)c2)[C@@H]1OC [Rescinnamine, reference compound]")
"label 0"
>>> group("CN(C)CCCN1c2ccccc2Sc2ccccc21 [Promazine (e.g., hydrochloride), promazine, reference compound]")
"label 0"
>>> group("CC[C@H](C)C(=O)O[C@H]1CCC=C2C=C[C@H](C)[C@H](CC[C@@H]3C[C@@H](O)CC(=O)O3)[C@H]21 [Mevastatin, reference compound]")
"label 1"
>>> group("COc1cc(C=O)ccc1O [Vanillin (e.g., acetate), Vanillin]")
"label 1"
>>> group("CN[C@H]1CC[C@@H](c2ccc(Cl)c(Cl)c2)c2ccc(CS(C)(=O)=O)cc21")
"label 1"
>>> group("CC[N+](C)(CC)CCC[n+]1c(-c2ccccc2)c2cc(N)ccc2c2ccc(N)cc21 [Propidium (e.g., iodide), Propidium, reference compound]")
"label 0"
>>> group("CN(C)CCCOc1nn(Cc2ccccc2)c2ccccc12 [Benzydamine (e.g., hydrochloride), benzydamine, reference compound]")
"label 0"
>>> group("Nc1ccn([C@@H]2O[C@H](CO)[C@@H](O)C2(F)F)c(=O)n1 [Gemcitabine (e.g., hydrochloride), Gemcitabine, reference compound]")
"label 1"
>>> group("COc1cc(/C=C/C(=O)CC(=O)/C=C/c2ccc(O)c(OC)c2)ccc1O [Curcumin, curcumin]")
"label 0"
>>> group("Cc1c(O)cccc1C(=O)N[C@@H](CSc1ccccc1)[C@H](O)CN1C[C@H]2CCCC[C@H]2C[C@H]1C(=O)NC(C)(C)C [Nelfinavir (e.g., mesylate), nelfinavir, reference compound]")
"label 1"
>>> group("C[C@@H]1CC[C@H]2[C@@H](C)C(=O)O[C@@H]3O[C@]4(C)CC[C@@H]1[C@]32OO4 [Artemisinin, artemisinin, reference compound]")
"label 1"
>>> group("OC(CCCN1CCCCC1)(c1ccccc1)c1ccccc1 [Diphenidol (e.g., hydrochloride), Diphenidol, reference compound]")
"label 0"
>>> group("Oc1cc(O)cc(/C=C/c2ccc(O)c(O)c2)c1 [Piceatannol, reference compound]")
"label 1"
>>> group("C[C@]12CC[C@@H]3c4ccc(O)cc4C[C@@H](CCCCCCCCC[S+]([O-])CCCC(F)(F)C(F)(F)F)[C@H]3[C@@H]1CC[C@@H]2O (stereo partly shown) [Fulvestrant, reference compound]")
"label 1"
>>> group("O=C1CC(O)(c2ccccc2)Oc2ccccc21 (stereo not shown) [2-Hydroxyflavanone, 2-hydroxyflavanone, reference compound]")
"label 1"
>>> group("CN[C@H]1CC[C@@H](c2ccc(Cl)c(Cl)c2)c2ccc(N(C)C)cc21 [Sertraline A-Ring N,N-Dimethylamine]")
"label 1"
>>> group("COc1cc(C(=O)OCCCN2CCCN(CCCOC(=O)c3cc(OC)c(OC)c(OC)c3)CC2)cc(OC)c1OC [Dilazep (e.g., dihydrochloride), Dilazep, reference compound]")
"label 0"
>>> group("O=C(CCCN1CCC(O)(c2cccc(C(F)(F)F)c2)CC1)c1ccc(F)cc1 [Trifluperidol, reference compound]")
"label 0"
>>> group("CN(C)[C@H]1CC[C@@H](c2ccc(Cl)c(Cl)c2)c2ccc(C(N)=O)cc21")
"label 1"
>>> group("CC[C@]1(O)C[C@H]2CN(CCc3c([nH]c4ccccc34)[C@@](C(=O)OC)(c3cc4c(cc3OC)N(C=O)[C@H]3[C@@](O)(C(=O)OC)[C@H](OC(C)=O)[C@]5(CC)C=CCN6CC[C@]43[C@@H]65)C2)C1 [Vincristine (e.g., sulfate), Vincristine, reference compound]")
"label 1"
>>> group("CCCCOc1cc(C(=O)NCCN(CC)CC)c2ccccc2n1 [Dibucaine (e.g., hydrochloride), Dibucaine, reference compound]")
"label 0"
>>> group("C=C1C[C@@H]2[C@H](CC[C@]3(C)C(=O)CC[C@@H]23)[C@@]2(C)C=CC(=O)C=C12 [Exemestane, reference compound]")
"label 0"
>>> group("O=C(O)Cc1cc(I)c(Oc2ccc(O)c(I)c2)c(I)c1 [Tiratricol, reference compound]")
"label 0"
>>> group("CNC(=O)Oc1cccc2ccccc12 [Carbaryl]")
"label 0"

---

Below is a list of entries, each paired with its recorded Emax value.
# Tested on: Huh7 cells expressing a subgenomic RNA replicon of Con1 (genotype 1b) sequence origin
# assay.text: microbe, parasite or virus in culture
# condition.details: Hepatitis C virus, Huh-7, 48 h, read-out: Max Effect
experimental.readout: Emax

>>> result("CNC1CCC(c2ccc(C(F)(F)F)cc2)c2ccccc21 (centres unmarked) [Sertraline B-Ring para-Trifluoromethane]")
"99%"
>>> result("CN[C@H]1CC[C@@H](c2ccc(Cl)c(Cl)c2)c2ccc(C#N)cc21 [Sertraline Nitrile]")
"89%"
>>> result("CN(C)[C@H]1CC[C@@H](c2ccc(Cl)c(Cl)c2)c2ccccc21 [N,N-Dimethyl Sertraline]")
"70%"
>>> result("CN(C)[C@H]1CC[C@@H](c2ccc(Cl)c(Cl)c2)c2ccc(NS(C)(=O)=O)cc21 [Dimethyl Sertraline Reverse Sulfonamide]")
"44%"
>>> result("NC1CCC(c2ccc(Cl)c(Cl)c2)c2ccccc21 (racemic)")
"99%"
>>> result("CN[C@H]1CC[C@@H](c2ccc(Cl)c(Cl)c2)c2ccc(CNS(C)(=O)=O)cc21")
"100%"
>>> result("CN[C@H]1CC[C@@H](c2ccc(Cl)c(Cl)c2)c2ccc(C(=O)OC)cc21 [Sertraline A-ring Methyl Ester]")
"99%"
>>> result("CN[C@H]1CC[C@@H](c2ccc(Cl)c(Cl)c2)c2ccc(S(=O)(=O)NC)cc21 [Sertraline Sulfonamide]")
"94%"

---

# System: Huh7 cells expressing a subgenomic RNA replicon of Con1 (genotype 1b) sequence origin
# assay.text: microbe, parasite or virus in culture
# condition.details: Hepatitis C virus, Huh-7
pIC50: −log10 of the molar value.
experimental.readout: pIC50

>>> result("CN[C@H]1CC[C@@H](c2ccc(Cl)c(Cl)c2)c2ccc(CN)cc21")
5.80
>>> result("Nc1nc(F)nc2c1ncn2[C@@H]1O[C@H](CO)[C@@H](O)[C@@H]1O [Fludarabine, reference compound]")
5.35
>>> result("O=C1c2ccccc2-[n+]2ccc3c([nH]c4ccccc43)c21 [Fascaplysin, reference compound]")
6.35
>>> result("C[C@H]1[C@@H](O)O[C@@H]2O[C@@]3(C)CC[C@H]4[C@H](C)CC[C@@H]1[C@@]24OO3 [Dihydroartemisinin, dihydroartemisinin, reference compound]")
5.41
>>> result("CCc1cn([C@H]2C[C@H](O)[C@@H](CO)O2)c(=O)[nH]c1=O [Edoxudine, edoxudine, reference compound]")
5.71
>>> result("Nc1ccn([C@@H]2O[C@H](CO)[C@@H](O)[C@@H]2O)c(=O)n1 [Cytarabine, reference compound]")
6.93
>>> result("COc1cc(CNC(=O)CCCC/C=C/C(C)C)ccc1O [Capsaicin, reference compound]")
4.93

Where do the numbers come from? From patent US20100009970A1.
